# assayed_system: MDR1 (Homo sapiens)
# Sequence (P08183 whole entry): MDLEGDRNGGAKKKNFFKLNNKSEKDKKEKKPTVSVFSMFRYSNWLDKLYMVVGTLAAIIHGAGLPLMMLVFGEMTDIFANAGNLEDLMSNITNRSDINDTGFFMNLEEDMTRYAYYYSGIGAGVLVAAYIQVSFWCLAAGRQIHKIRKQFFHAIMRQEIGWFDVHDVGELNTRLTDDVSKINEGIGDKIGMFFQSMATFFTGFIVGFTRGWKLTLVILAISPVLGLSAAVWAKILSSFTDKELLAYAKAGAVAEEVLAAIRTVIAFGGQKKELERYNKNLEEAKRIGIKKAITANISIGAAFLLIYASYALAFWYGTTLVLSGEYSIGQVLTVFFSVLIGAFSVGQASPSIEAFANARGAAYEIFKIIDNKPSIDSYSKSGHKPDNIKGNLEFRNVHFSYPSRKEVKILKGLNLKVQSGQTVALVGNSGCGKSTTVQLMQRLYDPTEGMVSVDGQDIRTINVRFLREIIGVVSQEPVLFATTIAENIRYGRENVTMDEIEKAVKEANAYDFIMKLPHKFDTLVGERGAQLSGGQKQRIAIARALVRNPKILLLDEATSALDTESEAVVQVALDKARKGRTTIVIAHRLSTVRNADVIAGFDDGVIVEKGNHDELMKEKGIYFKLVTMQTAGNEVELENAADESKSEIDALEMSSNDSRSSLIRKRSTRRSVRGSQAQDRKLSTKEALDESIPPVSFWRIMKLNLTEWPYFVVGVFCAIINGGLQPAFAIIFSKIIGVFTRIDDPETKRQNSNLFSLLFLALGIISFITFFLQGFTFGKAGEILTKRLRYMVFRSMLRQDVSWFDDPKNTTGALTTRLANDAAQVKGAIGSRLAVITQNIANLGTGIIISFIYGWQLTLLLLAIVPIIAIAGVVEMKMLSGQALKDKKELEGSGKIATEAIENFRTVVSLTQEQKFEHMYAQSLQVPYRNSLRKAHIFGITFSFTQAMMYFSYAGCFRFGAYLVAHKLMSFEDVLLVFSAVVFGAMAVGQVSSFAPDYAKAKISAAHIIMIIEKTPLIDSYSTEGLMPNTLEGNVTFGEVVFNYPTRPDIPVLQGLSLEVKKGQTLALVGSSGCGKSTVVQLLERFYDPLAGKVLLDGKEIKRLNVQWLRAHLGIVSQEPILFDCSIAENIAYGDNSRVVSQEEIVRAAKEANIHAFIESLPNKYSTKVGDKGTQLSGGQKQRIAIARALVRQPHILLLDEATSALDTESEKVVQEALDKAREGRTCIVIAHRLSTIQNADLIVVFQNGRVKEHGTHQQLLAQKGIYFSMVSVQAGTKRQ
# measurement_setup: human, probe N-methyl quinidine (NMQ), 1.0 µM
metric: inhibition at 1 min, 1 µM

INSERT INTO measurements (molecule, metric, result) VALUES
  ('C/C=C/C[C@@H](C)C(=O)[C@H]1C(=O)N[C@@H](C(C)C)C(=O)N(C)CC(=O)N(C)[C@@H](CC(C)C)C(=O)N[C@@H](C(C)C)C(=O)N(C)[C@@H](CC(C)C)C(=O)N[C@@H](C)C(=O)N[C@H](C)C(=O)N(C)[C@@H](CC(C)C)C(=O)N(C)[C@@H](CC(C)C)C(=O)N(C)[C@@H](C(C)C)C(=O)N1C [Valspodar, reference compound]', 'inhibition at 1 min, 1 µM', '96%');

----------
# assayed_system: MRP4 (Homo sapiens, UniProt O15439)
# Construct: host or cells: HEK293 (membrane vesicles)
# Sequence (O15439 1-1325): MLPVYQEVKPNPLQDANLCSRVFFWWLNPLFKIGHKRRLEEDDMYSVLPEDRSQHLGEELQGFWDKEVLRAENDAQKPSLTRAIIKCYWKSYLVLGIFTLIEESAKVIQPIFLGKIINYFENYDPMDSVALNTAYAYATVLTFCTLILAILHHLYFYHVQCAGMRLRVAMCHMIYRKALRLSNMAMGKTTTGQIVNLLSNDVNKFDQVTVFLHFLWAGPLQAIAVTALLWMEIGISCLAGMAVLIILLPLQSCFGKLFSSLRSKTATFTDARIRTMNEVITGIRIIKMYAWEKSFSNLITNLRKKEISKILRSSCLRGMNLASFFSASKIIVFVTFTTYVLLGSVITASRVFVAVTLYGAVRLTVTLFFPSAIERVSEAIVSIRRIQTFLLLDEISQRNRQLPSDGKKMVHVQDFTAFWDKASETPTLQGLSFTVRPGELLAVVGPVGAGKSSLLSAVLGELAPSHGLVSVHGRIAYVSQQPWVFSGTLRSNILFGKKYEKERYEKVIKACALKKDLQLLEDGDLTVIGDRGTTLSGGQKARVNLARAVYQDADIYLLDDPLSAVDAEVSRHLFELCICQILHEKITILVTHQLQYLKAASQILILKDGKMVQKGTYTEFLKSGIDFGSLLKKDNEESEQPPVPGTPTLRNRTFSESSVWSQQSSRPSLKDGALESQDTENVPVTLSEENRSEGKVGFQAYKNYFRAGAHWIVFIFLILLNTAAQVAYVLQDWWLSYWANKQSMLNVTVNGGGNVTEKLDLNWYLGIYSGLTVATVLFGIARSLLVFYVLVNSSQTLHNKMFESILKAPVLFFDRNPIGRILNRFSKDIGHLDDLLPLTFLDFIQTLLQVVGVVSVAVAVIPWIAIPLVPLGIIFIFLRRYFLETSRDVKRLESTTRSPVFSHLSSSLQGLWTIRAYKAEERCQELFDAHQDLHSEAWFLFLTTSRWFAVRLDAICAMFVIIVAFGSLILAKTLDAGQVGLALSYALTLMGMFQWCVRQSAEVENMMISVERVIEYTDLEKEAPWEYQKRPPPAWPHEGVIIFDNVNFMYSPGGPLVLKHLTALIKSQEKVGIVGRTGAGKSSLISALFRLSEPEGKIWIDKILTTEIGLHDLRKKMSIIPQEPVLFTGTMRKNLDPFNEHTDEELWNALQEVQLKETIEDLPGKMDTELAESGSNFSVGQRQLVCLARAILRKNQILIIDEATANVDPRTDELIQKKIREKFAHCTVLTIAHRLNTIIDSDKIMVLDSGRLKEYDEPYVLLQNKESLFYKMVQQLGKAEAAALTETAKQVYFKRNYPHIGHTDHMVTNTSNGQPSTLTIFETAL
# assay_summary: Vesicular transport inhibition assay (ABC), MRP4-mediated DHEAS transport, HEK293 membrane vesicles
# Assay type: in vitro ADME
# measurement_setup: human, probe dehydroepiandrosterone sulfate (DHEAS), 0.5 µM; positive control inhibitor 150.0 µM; DHEAS probe; read-out: Relative inhibition
metric: inhibition at 1.5 min, 150 µM (%)

INSERT INTO assay_data (compound, quantitative_readout) VALUES
  ('CN(C)C(=O)CCSC(SCCC(=O)O)c1cccc(/C=C/c2ccc3ccc(Cl)cc3n2)c1 (stereo not shown) [MK-571, reference compound]', 98);
